- assay_overview: xn = mol fraction of the nth substance listed
- experimental_conditions: 293.15 K; 100 kPa; Liquid; Cone and plate viscometry; x1 = 0.499
property: viscosity (mPa·s)
Please respond with the number in mPa·s and leave the unit unwritten.

Sample answers from the record:
molecule	val
CCCCCCn1cc[n+](C)c1.O=[N+]([O-])c1cn[n-]c1 [1-hexyl-3-methylimidazolium 4-nitropyrazolide] + CCCCCCCC[P+](CC)(CC)CC.O=S(=O)([N-]S(=O)(=O)C(F)(F)F)C(F)(F)F	209
CCCCCCn1cc[n+](C)c1.N#Cc1ccc[n-]1 [1-hexyl-3-methylimidazolium 2-cyanopyrrolide] + CCCCCCCCCCCCCC[P+](CCCCCC)(CCCCCC)CCCCCC.O=S(=O)([N-]S(=O)(=O)C(F)(F)F)C(F)(F)F	404
CC(=O)[O-].CCCCCCCCCCCCCC[P+](CCCCCC)(CCCCCC)CCCCCC [trihexyl(tetradecyl)phosphonium acetate] + CCCCCC[n+]1ccn(C)c1.O=S(=O)([N-]S(=O)(=O)C(F)(F)F)C(F)(F)F	621
CCCCCCCC[P+](CC)(CC)CC.O=[N+]([O-])c1cn[n-]c1 [triethyloctylphosphonium 4-nitropyrazolide] + CCCCCC[n+]1ccn(C)c1.O=S(=O)([N-]S(=O)(=O)C(F)(F)F)C(F)(F)F	223
CCCCCCn1cc[n+](C)c1C.O=[N+]([O-])c1cn[n-]c1 [1-hexyl-2,3-dimethylimidazolium 4-nitropyrazolide] + CCCCCCCC[P+](CC)(CC)CC.O=S(=O)([N-]S(=O)(=O)C(F)(F)F)C(F)(F)F	292

Consider the additional molecule presented here.
Input line: Specify viscosity for CCCCCCCCCC[P+](CC)(CC)CC.O=[N+]([O-])c1cn[n-]c1 [decyltriethylphosphonium 4-nitropyrazolide] + CC[P+](CC)(CC)COCCOC.O=S(=O)([N-]S(=O)(=O)C(F)(F)F)C(F)(F)F and stop.
Output line: 131
